Experimental Target: Nav1.7 (or SCN9A) channel; HEK cells stably transfected with hSCN9A (Homo sapiens)
Construct: expressed in transfected cells
Sequence (Q15858 whole entry): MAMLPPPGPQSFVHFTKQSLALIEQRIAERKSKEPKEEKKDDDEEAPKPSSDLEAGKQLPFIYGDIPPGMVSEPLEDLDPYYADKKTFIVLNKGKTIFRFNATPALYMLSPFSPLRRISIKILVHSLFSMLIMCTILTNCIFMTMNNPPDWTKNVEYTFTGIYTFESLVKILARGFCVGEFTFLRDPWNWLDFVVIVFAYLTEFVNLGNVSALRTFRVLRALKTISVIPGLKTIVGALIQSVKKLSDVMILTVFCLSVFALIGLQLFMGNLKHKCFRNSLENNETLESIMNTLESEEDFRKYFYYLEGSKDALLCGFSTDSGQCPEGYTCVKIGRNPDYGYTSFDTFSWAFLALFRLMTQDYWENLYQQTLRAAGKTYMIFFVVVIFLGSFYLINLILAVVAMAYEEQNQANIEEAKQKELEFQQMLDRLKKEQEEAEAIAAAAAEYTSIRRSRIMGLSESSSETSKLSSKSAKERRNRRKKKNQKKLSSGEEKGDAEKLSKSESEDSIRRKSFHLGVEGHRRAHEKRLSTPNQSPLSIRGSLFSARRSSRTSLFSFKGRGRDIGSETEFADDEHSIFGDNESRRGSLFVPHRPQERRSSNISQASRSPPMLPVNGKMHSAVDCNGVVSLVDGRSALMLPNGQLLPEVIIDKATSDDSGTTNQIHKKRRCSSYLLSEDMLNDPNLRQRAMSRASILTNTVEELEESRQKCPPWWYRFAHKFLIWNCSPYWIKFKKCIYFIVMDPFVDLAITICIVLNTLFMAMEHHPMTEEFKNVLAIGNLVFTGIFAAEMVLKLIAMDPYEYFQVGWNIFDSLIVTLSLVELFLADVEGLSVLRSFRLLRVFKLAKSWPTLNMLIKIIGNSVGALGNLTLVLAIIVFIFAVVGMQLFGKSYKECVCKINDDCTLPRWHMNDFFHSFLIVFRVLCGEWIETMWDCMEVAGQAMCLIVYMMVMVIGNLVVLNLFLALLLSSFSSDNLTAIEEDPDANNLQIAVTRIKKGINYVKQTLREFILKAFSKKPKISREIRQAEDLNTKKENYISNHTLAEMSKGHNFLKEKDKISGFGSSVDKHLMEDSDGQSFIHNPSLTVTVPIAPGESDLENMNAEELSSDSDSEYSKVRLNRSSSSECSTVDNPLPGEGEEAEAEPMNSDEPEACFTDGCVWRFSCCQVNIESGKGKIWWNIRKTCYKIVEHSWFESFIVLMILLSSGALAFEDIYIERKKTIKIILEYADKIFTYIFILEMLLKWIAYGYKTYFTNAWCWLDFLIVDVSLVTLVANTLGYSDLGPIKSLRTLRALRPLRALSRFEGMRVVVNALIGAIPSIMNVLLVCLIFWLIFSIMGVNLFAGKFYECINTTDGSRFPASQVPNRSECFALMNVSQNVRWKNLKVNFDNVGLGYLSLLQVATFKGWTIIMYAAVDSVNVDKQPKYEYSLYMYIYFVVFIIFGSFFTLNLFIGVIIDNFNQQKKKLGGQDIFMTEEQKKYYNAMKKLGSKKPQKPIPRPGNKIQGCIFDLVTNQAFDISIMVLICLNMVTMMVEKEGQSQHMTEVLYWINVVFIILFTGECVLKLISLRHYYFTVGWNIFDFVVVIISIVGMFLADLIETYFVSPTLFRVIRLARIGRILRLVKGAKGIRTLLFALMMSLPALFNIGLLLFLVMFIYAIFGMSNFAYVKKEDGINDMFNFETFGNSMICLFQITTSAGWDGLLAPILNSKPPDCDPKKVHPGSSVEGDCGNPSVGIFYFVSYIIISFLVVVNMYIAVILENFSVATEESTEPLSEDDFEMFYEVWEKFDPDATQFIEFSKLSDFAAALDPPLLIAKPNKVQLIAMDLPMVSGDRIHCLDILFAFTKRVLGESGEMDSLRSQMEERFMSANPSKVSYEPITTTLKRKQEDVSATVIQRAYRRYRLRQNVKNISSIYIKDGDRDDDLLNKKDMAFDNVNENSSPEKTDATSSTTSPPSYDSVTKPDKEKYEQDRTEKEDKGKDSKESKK
Experiment: Nav1.7 block, PatchXpress 7000 automated whole-cell voltage clamp, estimated IC50 (EIC50)
Type: cell-based
Condition Context: estimated IC50; hSCN9A HEK cells, PatchXpress platform; Examples 283-814
Quantity Measured: log10 IC50 (log10 of the value in nM)
Base-10 log of IC50, unit nM.

// below: answered molecules
1. N#Cc1cc(S(=O)(=O)Nc2ncc(Cl)s2)ccc1Oc1ccc(Cl)cc1-c1ccnc(CO)c1 ... 2.15
2. Cn1ncnc1-c1cc(Cl)ccc1Oc1ccc(S(=O)(=O)Nc2nccs2)cc1C#N ... 3.32
3. CC(C)c1cc(-n2ccc(C(F)(F)F)n2)ccc1Oc1ccc(S(=O)(=O)Nc2nccs2)cc1C#N ... 2.28

Summary line: N#Cc1cc(S(=O)(=O)Nc2ncns2)cc(F)c1Oc1ccc(F)cc1-c1ccn[nH]1 , Nav1.7 (or SCN9A) channel; HEK cells stably transfected with hSCN9A (Homo sapiens), reported log10 IC50 = 2.92

Summary line: CCn1nc(C(C)(C)C#N)cc1-c1ccc(Oc2ccc(S(=O)(=O)Nc3nccs3)cc2C#N)cc1 , Nav1.7 (or SCN9A) channel; HEK cells stably transfected with hSCN9A (Homo sapiens), reported log10 IC50 = 2.61

Summary line: Nc1cc(-c2cc(F)ccc2Oc2cc(F)c(S(=O)(=O)Nc3ncns3)cc2F)ccn1 , Nav1.7 (or SCN9A) channel; HEK cells stably transfected with hSCN9A (Homo sapiens), reported log10 IC50 = 1.04

Summary line: CCn1nc(C(F)(F)F)cc1-c1cccc(Oc2ccc(S(=O)(=O)Nc3nc(C)ns3)cc2C#N)c1 , Nav1.7 (or SCN9A) channel; HEK cells stably transfected with hSCN9A (Homo sapiens), reported log10 IC50 = 3.30

Summary line: O=S(=O)(Nc1ccc(F)cn1)c1cc(F)c(Oc2ccc(C(F)(F)F)cc2C2CCNCC2)cc1F , Nav1.7 (or SCN9A) channel; HEK cells stably transfected with hSCN9A (Homo sapiens), reported log10 IC50 = 2.43

Summary line: O=S(=O)(Nc1ncns1)c1cc(F)c(Oc2ccc(C(F)(F)F)cc2C2CCOCC2)cc1F , Nav1.7 (or SCN9A) channel; HEK cells stably transfected with hSCN9A (Homo sapiens), reported log10 IC50 = 1.43
